Condition notes: in isopropanol, 298.15 K
Property name: solubility (mole fraction)
// no unit string in output, number only

Request: So what's the measured solubility (mole fraction) for this one? CC(=O)c1ccc(O)cc1O
Result: 0.144

* * *

Condition notes: in methanol, 323.15 K
Property name: solubility (mole fraction)
// no unit string in output, number only

Request: So what's the measured solubility (mole fraction) for this one? CC(=O)c1ccc(O)cc1O
Result: 0.203

* * *

Condition notes: in n-propanol, 323.15 K
Property name: solubility (mole fraction)
// no unit string in output, number only

Request: So what's the measured solubility (mole fraction) for this one? CC(=O)c1ccc(O)cc1O
Result: 0.195

* * *

Condition notes: in isobutanol, 298.15 K
Property name: solubility (mole fraction)
// no unit string in output, number only

Request: So what's the measured solubility (mole fraction) for this one? CC(=O)c1ccc(O)cc1O
Result: 0.091

* * *

Condition notes: in methanol, 328.15 K
Property name: solubility (mole fraction)
// no unit string in output, number only

Request: So what's the measured solubility (mole fraction) for this one? CC(=O)c1ccc(O)cc1O
Result: 0.228

* * *

Condition notes: in methyl acetate, 303.15 K
Property name: solubility (mole fraction)

Request: So what's the measured solubility (mole fraction) for this one? CC(=O)c1ccc(O)cc1O
Result: 0.141

* * *

Condition notes: in n-propyl acetate, 328.15 K
Property name: solubility (mole fraction)
// no unit string in output, number only

Request: So what's the measured solubility (mole fraction) for this one? CC(=O)c1ccc(O)cc1O
Result: 0.205

* * *

Condition notes: in n-propanol, 318.15 K
Property name: solubility (mole fraction)
// no unit string in output, number only

Request: So what's the measured solubility (mole fraction) for this one? CC(=O)c1ccc(O)cc1O
Result: 0.18

* * *

Condition notes: in n-propanol, 313.15 K
Property name: solubility (mole fraction)
// no unit string in output, number only

Request: So what's the measured solubility (mole fraction) for this one? CC(=O)c1ccc(O)cc1O
Result: 0.167

* * *

Condition notes: in ethanol, 303.15 K
Property name: solubility (mole fraction)

Request: So what's the measured solubility (mole fraction) for this one? CC(=O)c1ccc(O)cc1O
Result: 0.146

* * *

Condition notes: in n-propyl acetate, 303.15 K
Property name: solubility (mole fraction)
// no unit string in output, number only

Request: So what's the measured solubility (mole fraction) for this one? CC(=O)c1ccc(O)cc1O
Result: 0.129

* * *

Condition notes: in n-propanol, 293.15 K
Property name: solubility (mole fraction)
// no unit string in output, number only

Request: So what's the measured solubility (mole fraction) for this one? CC(=O)c1ccc(O)cc1O
Result: 0.106
